- study system: Nitric oxide synthase, inducible (Mus musculus, UniProt P29477)
- Sequence (P29477 whole entry): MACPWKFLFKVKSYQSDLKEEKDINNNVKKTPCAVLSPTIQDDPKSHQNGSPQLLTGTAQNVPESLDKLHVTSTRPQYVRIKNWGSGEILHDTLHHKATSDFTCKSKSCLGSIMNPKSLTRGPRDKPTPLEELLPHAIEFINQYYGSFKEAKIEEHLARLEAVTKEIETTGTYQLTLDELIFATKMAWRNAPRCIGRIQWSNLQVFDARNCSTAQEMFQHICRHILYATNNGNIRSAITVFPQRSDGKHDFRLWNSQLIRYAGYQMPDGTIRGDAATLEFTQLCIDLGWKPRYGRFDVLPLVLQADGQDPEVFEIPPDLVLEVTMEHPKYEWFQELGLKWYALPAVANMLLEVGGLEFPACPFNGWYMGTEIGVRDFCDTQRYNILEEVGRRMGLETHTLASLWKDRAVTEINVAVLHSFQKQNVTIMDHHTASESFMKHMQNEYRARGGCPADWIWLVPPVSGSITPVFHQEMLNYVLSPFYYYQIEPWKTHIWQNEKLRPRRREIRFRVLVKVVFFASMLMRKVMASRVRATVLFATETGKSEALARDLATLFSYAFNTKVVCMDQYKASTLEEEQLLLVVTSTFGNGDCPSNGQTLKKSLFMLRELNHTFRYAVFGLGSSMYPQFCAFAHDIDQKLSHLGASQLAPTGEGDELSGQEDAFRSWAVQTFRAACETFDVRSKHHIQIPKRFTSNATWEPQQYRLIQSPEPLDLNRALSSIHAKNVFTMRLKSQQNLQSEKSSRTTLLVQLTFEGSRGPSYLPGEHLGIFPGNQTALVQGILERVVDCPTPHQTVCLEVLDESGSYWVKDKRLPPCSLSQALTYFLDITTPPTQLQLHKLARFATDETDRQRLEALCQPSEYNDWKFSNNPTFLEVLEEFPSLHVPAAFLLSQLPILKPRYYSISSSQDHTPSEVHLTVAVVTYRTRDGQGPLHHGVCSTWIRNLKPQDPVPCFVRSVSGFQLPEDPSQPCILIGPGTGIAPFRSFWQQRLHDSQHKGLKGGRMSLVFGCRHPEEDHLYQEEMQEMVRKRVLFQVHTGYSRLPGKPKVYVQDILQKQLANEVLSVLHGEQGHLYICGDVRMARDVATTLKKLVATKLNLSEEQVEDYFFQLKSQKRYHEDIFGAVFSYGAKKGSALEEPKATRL
- procedure summary: Inhibition of iNOS-mediated nitric oxide production in LPS-stimulated mouse RAW264.7 cells after 24 hrs by Griess reaction analysis
pIC50: −log10 of the molar value.
attribute measured: pIC50

{"columns": ["compound", "pIC50"],
 "data": [
  ["C/C(=C\\CC[C@@H](C)[C@H]1CC[C@@]2(C)C3=C([C@H](O)C[C@]12C)[C@@]1(C)CCC(=O)C(C)(C)[C@@H]1CC3=O)C(=O)O", 5.30],
  ["C/C(=C\\CC[C@@H](C)[C@H]1CC[C@@]2(C)C3=C(C(=O)C[C@]12C)[C@@]1(C)CCC(=O)C(C)(C)[C@@H]1CC3=O)C(=O)O", 5.30]
]}

[A] COC(=O)C(C)CC(=O)C[C@@H](C)[C@H]1CC(=O)[C@@]2(C)C3=C(C(=O)C(=O)[C@]12C)[C@@]1(C)CCC(=O)C(C)(C)[C@@H]1CC3=O (some centres not stated)
[B] CC(=O)O[C@H]1C[C@H]([C@H](C)CC(=O)CC(C)C(=O)O)[C@@]2(C)CC(=O)C3=C(CC[C@H]4C(C)(C)C(=O)CC[C@]34C)[C@]12C (some centres not stated)
Prompt line: For the two items A and B , which reports the higher pIC50 value? Field: selected label. Fill in the label of the entry you choose.
Response line: B

* * *

- study system: Nitric oxide synthase, inducible (Mus musculus, UniProt P29477)
- procedure summary: Inhibition of iNOS-mediated nitric oxide production in LPS-stimulated mouse RAW264.7 cells after 24 hrs by Griess reaction analysis
attribute measured: IC50 (µM)

[a] CCOC(=O)C(C)CC(=O)C[C@@H](C)[C@H]1CC(=O)[C@@]2(C)C3=C(C(=O)C(=O)[C@]12C)[C@@]1(C)CCC(=O)C(C)(C)[C@@H]1CC3=O (stereo partly drawn)
[b] CCOC(=O)CC[C@@H](C)[C@H]1CC(=O)[C@@]2(C)C3=C(C(=O)C[C@]12C)[C@@]1(C)CCC(=O)C(C)(C)[C@@H]1C[C@@H]3O [ETHYL LUCIDENATE A]
Prompt line: Kindly identify the item with the lower IC50 figure among these two: a and b When you have decided, please share the label of that item.
Response line: a

* * *

- study system: Nitric oxide synthase, inducible (Mus musculus, UniProt P29477)
- procedure summary: Inhibition of iNOS-mediated nitric oxide production in LPS-stimulated mouse RAW264.7 cells after 24 hrs by Griess reaction analysis
IC50 values by entry

These recorded examples may help you get a feel for the data.
{"columns": ["compound", "study system", "attribute measured", "result"],
 "data": [
  ["COc1cc(CCC(=O)O)oc(=O)c1", "Nitric oxide synthase, inducible (Mus musculus, UniProt P29477)", "IC50", "> 20 µM"],
  ["CCOC(=O)CC[C@@H](C)[C@H]1CC(=O)[C@@]2(C)C3=C(C(=O)C[C@]12C)[C@@]1(C)CCC(=O)C(C)(C)[C@@H]1CC3=O [ETHYL LUCIDENATE F]", "Nitric oxide synthase, inducible (Mus musculus, UniProt P29477)", "IC50", "> 20 µM"]
]}

Next:
Field IC50 (system: Nitric oxide synthase, inducible (Mus musculus, UniProt P29477)) for entry COCC1(O)OC(=O)C=C1C (racemic) = > 20 µM

These entries and their values trace back to ChEMBL document CHEMBL2331431.
